Test system: wheat (Triticum aestivum)
protocol: Test A postemergence, wheat
Format: in vivo
assay-context: Postemergence, 31 g ai/ha; visual injury on 0 to 100 scale (0 no effect, 100 complete control), approx. 10 days
quantity-measured: Plant response rating, Wheat
# answer = number (no unit)

Query: Returns the measured Plant response rating, Wheat for the input molecule. Input: Cc1cc(C)c(N(S(=O)(=O)C(F)(F)F)S(=O)(=O)C(F)(F)F)cc1N1CC2(CCOCC2)OC1=O [Compound 157]
Reply: 0

Query: Fill in: Plant response rating, Wheat of Cc1cc(C)c(C(=O)N2CCCC(F)C2)cc1NS(=O)(=O)C(F)(F)F (centres unmarked) [Compound 155] is ___
Reply: 30

Query: Entry CCC(C)C(=O)OCN(c1cc(C2=NOC3(CCCC3)C2)c(C)cc1C)S(=O)(=O)C(F)(F)F (centres unmarked) [Compound 151] : reported Plant response rating, Wheat = ?
Reply: 0

Query: Returns the measured Plant response rating, Wheat for the input molecule. Input: Cc1cc(C)c(N(COC(=O)CC(C)C)S(=O)(=O)C(F)(F)F)cc1C1=NOC2(CCCC2)C1 [Compound 152]
Reply: 40

Query: Find the recorded Plant response rating, Wheat belonging to CCC(=O)OCN(c1cc(C2=NOC3(CCCC3)C2)c(C)cc1C)S(=O)(=O)C(F)(F)F [Compound 144] and report it.
Reply: 0

----------
Tested on: kochia (Bassia scoparia)
protocol: Test A1 postemergence, kochia
Type: in vivo
assay-context: 31 g ai/ha, postemergence; 0 to 100 scale (0 no effect, 100 complete control)
quantity-measured: Kochia plant response rating
# print the numeric value only

Solved entries (count: 2):
INSERT INTO measurements (compound, quantity_measured, value_reported) VALUES
  ('Cc1c(C(=O)N2CCC(C)CC2)cc(N(COC(=O)C(C)(C)C)S(=O)(=O)C(F)(F)F)c(C)c1C [Compound 369]', 'Kochia plant response rating', 0),
  ('Cc1cc(C)c(N(COC(=O)C(C)(C)C)S(=O)(=O)C(F)(F)F)cc1N1CCC2(CCC(C(F)(F)F)CC2)C1=O (stereo not drawn) [Compound 403]', 'Kochia plant response rating', 10);

Next compound, please.
Query: Tell me the measured Kochia plant response rating of Cc1cc(C)c(C2=NOC3OCCCC23)cc1NS(=O)(=O)C(F)(F)F (stereo not drawn) [Compound 372] , please.
Reply: 0

----------
Test system: barnyardgrass (Echinochloa crus-galli)
protocol: Test A postemergence, barnyardgrass
Type: in vivo
assay-context: Postemergence, 500 g ai/ha; visual injury, 0 to 100 scale (0 no effect, 100 complete control), approx. 10 days
Outcome label depends on Plant response rating, Barnyardgrass relative to 80: at/above gives MET, below gives NOT MET.

INSERT INTO assay_data (compound, cat) VALUES
  ('Cc1cc(Cl)c(NS(=O)(=O)C(F)(F)F)cc1C(=O)N1CCSCC1 [Compound 26]', 'NOT MET'),
  ('COc1cnn(-c2cc(N(S(=O)(=O)C(F)(F)F)S(=O)(=O)C(F)(F)F)c(C)cc2C)c(=O)c1OC [Compound 40]', 'NOT MET'),
  ('CCn1cc(-c2cc(N(S(=O)(=O)C(F)(F)F)S(=O)(=O)C(F)(F)F)c(C)cc2C)c(=O)n(C)c1=O [Compound 30]', 'MET'),
  ('CCn1cc(-c2cc(NS(=O)(=O)C(F)(F)F)c(C)cc2C)c(=O)n(C)c1=O [Compound 32]', 'MET'),
  ('CCn1cc(-c2cc(N(S(=O)(=O)C(F)(F)F)S(=O)(=O)C(F)(F)F)c(C)cc2C)c(=O)n(CC)c1=O [Compound 43]', 'MET');

Now turn to the next compound.
Query: Does the compound O=C(c1ccc(Cl)c(NS(=O)(=O)C(F)(F)F)c1)N1CCOCC1 [Compound 15] have recorded Plant response rating, Barnyardgrass that is 80 or more?
Reply: NOT MET
